# measured.on: Sodium/iodide cotransporter (Rattus norvegicus, UniProt Q63008)
# Sequence (Q63008 whole entry): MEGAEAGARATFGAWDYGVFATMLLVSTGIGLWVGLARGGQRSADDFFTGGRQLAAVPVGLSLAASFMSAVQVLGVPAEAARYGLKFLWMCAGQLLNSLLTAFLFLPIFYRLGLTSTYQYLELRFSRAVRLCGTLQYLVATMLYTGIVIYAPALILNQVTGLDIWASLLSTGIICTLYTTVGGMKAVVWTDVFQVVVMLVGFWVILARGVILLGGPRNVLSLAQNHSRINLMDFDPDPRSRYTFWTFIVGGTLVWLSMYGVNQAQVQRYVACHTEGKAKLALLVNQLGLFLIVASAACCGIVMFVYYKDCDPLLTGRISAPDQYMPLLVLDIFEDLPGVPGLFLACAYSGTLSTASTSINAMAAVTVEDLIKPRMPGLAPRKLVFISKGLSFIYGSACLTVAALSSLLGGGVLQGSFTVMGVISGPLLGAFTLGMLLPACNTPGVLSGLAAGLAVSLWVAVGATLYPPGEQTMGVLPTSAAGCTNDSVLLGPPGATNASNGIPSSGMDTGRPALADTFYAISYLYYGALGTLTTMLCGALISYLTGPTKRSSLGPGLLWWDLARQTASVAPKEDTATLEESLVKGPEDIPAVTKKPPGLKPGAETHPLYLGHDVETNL
# test.description: Inhibition of sodium iodide symporter in rat FRTL5 cells assessed as inhibition of iodide uptake using Na125I after 60 mins by scintillation counting method
# Type: cell-based, FRTL-5
property: pIC50
pIC50 here: minus log base 10 of the concentration, concentration in moles per litre.

Query block: Tell me reported pIC50 for COc1ccc(COC(=O)C2=C(C)NC(=O)NC2c2ccccc2)cc1 (stereo unspecified) , tested with Sodium/iodide cotransporter (Rattus norvegicus, UniProt Q63008).
Result block: 6.40
